biological target: T1, human IL-6 (human, UniProt P05231 30-212); test: SPR Biacore, supernatant Ab on Protein A chip, 37 C
T1 construct: IL-6 flowed over captured antibodies
T1 sequence (P05231 30-212 limits assumed): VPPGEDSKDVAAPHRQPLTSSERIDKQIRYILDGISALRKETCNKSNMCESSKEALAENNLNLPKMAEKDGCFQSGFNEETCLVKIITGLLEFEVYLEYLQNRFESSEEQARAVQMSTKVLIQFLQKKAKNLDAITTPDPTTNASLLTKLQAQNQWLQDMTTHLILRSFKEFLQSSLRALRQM
Assign kon to each entry below.
Provide the reading as a plain figure in M⁻¹ s⁻¹.

Param item = anti-IL-6 antibody, heavy chain I51Y, G66D / light chain M32L, M50D, N52S, M88Q (antibody, IgG1, V domains shown, Full IgG1 (Expi293); VL = variant III) VH: EVQLVESGGGLVQPGGSLRLSCAASGFTFSPFAMSWVRQAPGKGLEWVAKYSPGGSWTYYSDTVTDRFTFSLDTSKSTAYLQMNSLRAEDTAVYYCARQLWGYYALDIWGQGTLVTVSS VL: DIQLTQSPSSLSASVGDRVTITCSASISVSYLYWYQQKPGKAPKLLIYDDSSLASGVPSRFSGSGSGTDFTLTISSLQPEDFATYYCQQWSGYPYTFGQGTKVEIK ; retrieve measured kon. 6.1e+06

What do we get for anti-IL-6 antibody, heavy chain I51A, G66D / light chain M32L, M50D, N52S, M88Q (antibody, IgG1, V domains shown, Full IgG1 (Expi293); VL = variant III) VH: EVQLVESGGGLVQPGGSLRLSCAASGFTFSPFAMSWVRQAPGKGLEWVAKASPGGSWTYYSDTVTDRFTFSLDTSKSTAYLQMNSLRAEDTAVYYCARQLWGYYALDIWGQGTLVTVSS VL: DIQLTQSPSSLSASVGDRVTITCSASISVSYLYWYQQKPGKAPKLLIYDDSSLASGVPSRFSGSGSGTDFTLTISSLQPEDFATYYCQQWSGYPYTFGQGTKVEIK ? 1.61e+06

Can you handle anti-IL-6 antibody, heavy chain I51R, G66D / light chain M32L, M50D, N52S, M88Q (antibody, IgG1, V domains shown, Full IgG1 (Expi293); VL = variant III) VH: EVQLVESGGGLVQPGGSLRLSCAASGFTFSPFAMSWVRQAPGKGLEWVAKRSPGGSWTYYSDTVTDRFTFSLDTSKSTAYLQMNSLRAEDTAVYYCARQLWGYYALDIWGQGTLVTVSS VL: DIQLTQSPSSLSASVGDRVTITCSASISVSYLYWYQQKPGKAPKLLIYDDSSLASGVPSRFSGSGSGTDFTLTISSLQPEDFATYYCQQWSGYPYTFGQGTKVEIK next? 1.63e+06

# repeat for anti-IL-6 antibody, heavy chain T63W, G66D / light chain M32L, M50D, N52S, M88Q (antibody, IgG1, V domains shown, Full IgG1 (Expi293); VL = variant III) VH: EVQLVESGGGLVQPGGSLRLSCAASGFTFSPFAMSWVRQAPGKGLEWVAKISPGGSWTYYSDWVTDRFTFSLDTSKSTAYLQMNSLRAEDTAVYYCARQLWGYYALDIWGQGTLVTVSS VL: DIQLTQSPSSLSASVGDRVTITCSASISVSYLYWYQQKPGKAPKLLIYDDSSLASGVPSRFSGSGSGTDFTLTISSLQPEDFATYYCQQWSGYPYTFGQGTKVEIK 1.57e+06

How about this binder: anti-IL-6 antibody, heavy chain T65A, G66D / light chain M32L, M50D, N52S, M88Q (antibody, IgG1, V domains shown, Full IgG1 (Expi293); VL = variant III) VH: EVQLVESGGGLVQPGGSLRLSCAASGFTFSPFAMSWVRQAPGKGLEWVAKISPGGSWTYYSDTVADRFTFSLDTSKSTAYLQMNSLRAEDTAVYYCARQLWGYYALDIWGQGTLVTVSS VL: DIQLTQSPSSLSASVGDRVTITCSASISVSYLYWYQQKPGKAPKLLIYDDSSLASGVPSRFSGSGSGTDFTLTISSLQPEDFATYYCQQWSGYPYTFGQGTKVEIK 2.27e+06
